Data credit: patent US6852744B2

# measurement.target: human chymase (Homo sapiens)
# Construct: made in house; host or cells: COS7 cells (transient transfection)
# Sequence (P23946 22-247): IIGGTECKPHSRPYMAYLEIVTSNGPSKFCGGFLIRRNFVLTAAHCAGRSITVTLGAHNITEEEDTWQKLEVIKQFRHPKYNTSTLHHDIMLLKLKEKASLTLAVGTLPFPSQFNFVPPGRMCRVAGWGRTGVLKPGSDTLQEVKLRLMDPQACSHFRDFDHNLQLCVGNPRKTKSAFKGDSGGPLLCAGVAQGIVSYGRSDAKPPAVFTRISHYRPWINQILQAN
# test.details: Human chymase inhibitory activity (in vitro, angiotensin I substrate)
# Type: biochemical
# experimental.conditions: recombinant human chymase (COS7 cells); substrate angiotensin I; 37° C.; read-out: Human Chymase Inhibition (IC50:nM)
measurement.name: IC50
Quote the value and follow it with the unit of measurement.

CC(C)[C@H](NC(=O)c1ccc2c(c1)no[n+]2[O-])C(=O)N1CCC[C@H]1C(=O)NC(Cc1ccc2ccccc2c1)C(=O)C(F)(F)F (some centres unmarked) [I-A-53] ... 69 nM
Cc1nnsc1C(=O)N[C@H](C(=O)N1CCC[C@H]1C(=O)NC(Cc1cc2ccccc2s1)C(=O)C(F)(F)F)C(C)C (some centres unmarked) [I-A-97] ... 75 nM
CC(C)[C@H](NC(=O)c1ccc2c(c1)no[n+]2[O-])C(=O)N1CCC[C@H]1C(=O)NC(Cc1ccccc1)C(=O)C(F)(F)F (some centres unmarked) [I-A-54] ... 90 nM
CC[C@@H](C)[C@H](NC(=O)c1c(C)noc1C)C(=O)N1CCC[C@H]1C(=O)N[C@@H](Cc1csc2ccccc12)C(=O)C(F)(F)F [I-A-4] ... 57 nM

Now, please, on to the next compound.
Query: Supply IC50 value. Item: Cc1noc(C)c1C(=O)N[C@@H](C)C(=O)N1CCC[C@H]1C(=O)N[C@@H](Cc1csc2ccccc12)C(=O)C(F)(F)F [I-A-5]
Result: 83 nM
